target: human GPR84 receptor (Homo sapiens, UniProt Q9NQS5); construct: host or cells: HEK293 cells, transient transfection; assay: Gαi biosensor BRET assay in HEK293 cells transfected with GPR84, stimulated with the GPR84 agonist ZQ-16; type: cell-based; conditions: HEK293, single concentration, concentration class F = 10 μM, 200 nmol/L ZQ-16
Sequence (Q9NQS5 whole entry): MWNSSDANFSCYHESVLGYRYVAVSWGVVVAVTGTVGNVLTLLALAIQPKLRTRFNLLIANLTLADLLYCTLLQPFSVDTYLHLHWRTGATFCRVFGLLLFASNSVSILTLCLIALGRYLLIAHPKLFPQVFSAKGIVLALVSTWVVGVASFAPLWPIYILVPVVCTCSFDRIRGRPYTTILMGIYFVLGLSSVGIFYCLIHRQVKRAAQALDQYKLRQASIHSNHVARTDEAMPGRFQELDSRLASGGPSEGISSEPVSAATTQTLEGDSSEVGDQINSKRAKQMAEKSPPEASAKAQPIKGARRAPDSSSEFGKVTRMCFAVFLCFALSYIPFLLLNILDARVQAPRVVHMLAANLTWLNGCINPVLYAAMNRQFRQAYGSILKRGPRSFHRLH
Below, each of the molecules is paired with its reported inhibition at 10 µM value.
RECORDED_ENDPOINT: inhibition at 10 µM

>>> data_value("CN(C)C(=O)COc1cnc(-c2cn(CC3OCC4(CC4)CO3)nn2)c(OC2CC2)c1")
"25 to 50%"
>>> data_value("CC1(C)COC(Cn2cc(C#Cc3ccc(C4CC4)cc3)nn2)OC1")
"≤ 25%"
>>> data_value("Clc1cc(N2CCN(Cc3ccccn3)CC2)cnc1-c1cn(CC2OCC3(CC3)CO2)cn1")
"50 to 75%"
>>> data_value("CC1(C)COC(Cn2cc(-c3ccc(C#CCOC4CC4)cc3C3CC3)nn2)OC1")
"> 75%"
